molecular target: CDK2/cyclinE (Homo sapiens, UniProt P24941); assay: CDK2 enzyme assay: off-chip mobility shift assay; type: biochemical; parameters: purchased Upstate/Millipore; details: biochemical, CDK2/cyclinE; average of two determinations
pIC50: −log10 of the molar value.
Output YES for pIC50 not less than 6; output NO otherwise.

Completed entries (count: 4):
# Substance Smiles, Qualitative Label
measured = [
    ("c1ccc2c(c1)ncn2-c1cc(Nc2ccc(OCCN3CCCCC3)cn2)ncn1", "YES"),
    ("CN(C)CCOc1ccc(Nc2cc(-n3cnc4cccnc43)ncn2)nc1", "NO"),
    ("Cc1nc2ccccc2n1-c1cc(Nc2ccc(OCCN(C)C)cn2)ncn1", "NO"),
    ("c1ccc(Nc2cc(-n3cnc4ccccc43)ncn2)nc1", "YES"),
]

[Q] Is reported pIC50 greater than or equal to 6 here: CN(C)CCOc1ccc(Nc2cc(-n3ccnc3)ncn2)nc1
[A] NO
